Experimental target: Adrenergic receptor alpha-1 (Rattus norvegicus, UniProt P15823+P23944+P43140)
Sequence (P15823 whole entry): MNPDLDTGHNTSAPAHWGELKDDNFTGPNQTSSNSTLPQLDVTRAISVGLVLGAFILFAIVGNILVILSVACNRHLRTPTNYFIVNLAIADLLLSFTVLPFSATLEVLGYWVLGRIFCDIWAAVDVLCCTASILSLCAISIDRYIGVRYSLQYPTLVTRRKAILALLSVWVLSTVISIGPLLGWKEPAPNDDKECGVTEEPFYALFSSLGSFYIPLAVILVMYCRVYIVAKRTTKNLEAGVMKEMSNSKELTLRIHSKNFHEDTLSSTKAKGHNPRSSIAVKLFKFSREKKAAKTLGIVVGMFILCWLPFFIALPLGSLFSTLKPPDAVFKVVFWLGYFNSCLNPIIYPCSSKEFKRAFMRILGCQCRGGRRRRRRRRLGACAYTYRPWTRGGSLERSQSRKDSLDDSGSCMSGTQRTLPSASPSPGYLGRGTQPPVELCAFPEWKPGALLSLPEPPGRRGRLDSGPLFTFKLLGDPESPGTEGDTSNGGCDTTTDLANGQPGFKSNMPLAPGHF
Sequence (P23944 whole entry): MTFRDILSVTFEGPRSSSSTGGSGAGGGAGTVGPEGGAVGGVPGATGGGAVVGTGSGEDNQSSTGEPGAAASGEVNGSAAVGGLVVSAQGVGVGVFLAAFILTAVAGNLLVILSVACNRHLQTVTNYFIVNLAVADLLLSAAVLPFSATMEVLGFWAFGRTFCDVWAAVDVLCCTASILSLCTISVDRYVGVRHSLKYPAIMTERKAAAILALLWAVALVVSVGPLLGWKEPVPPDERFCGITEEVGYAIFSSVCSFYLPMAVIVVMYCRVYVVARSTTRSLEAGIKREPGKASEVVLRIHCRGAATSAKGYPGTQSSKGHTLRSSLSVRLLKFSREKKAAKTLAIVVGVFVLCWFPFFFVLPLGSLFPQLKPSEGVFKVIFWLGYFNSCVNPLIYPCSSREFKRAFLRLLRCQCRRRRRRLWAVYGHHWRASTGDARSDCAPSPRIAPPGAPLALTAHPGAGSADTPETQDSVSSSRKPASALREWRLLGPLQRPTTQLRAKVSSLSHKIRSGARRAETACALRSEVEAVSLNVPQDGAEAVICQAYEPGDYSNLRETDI
Sequence (P43140 whole entry): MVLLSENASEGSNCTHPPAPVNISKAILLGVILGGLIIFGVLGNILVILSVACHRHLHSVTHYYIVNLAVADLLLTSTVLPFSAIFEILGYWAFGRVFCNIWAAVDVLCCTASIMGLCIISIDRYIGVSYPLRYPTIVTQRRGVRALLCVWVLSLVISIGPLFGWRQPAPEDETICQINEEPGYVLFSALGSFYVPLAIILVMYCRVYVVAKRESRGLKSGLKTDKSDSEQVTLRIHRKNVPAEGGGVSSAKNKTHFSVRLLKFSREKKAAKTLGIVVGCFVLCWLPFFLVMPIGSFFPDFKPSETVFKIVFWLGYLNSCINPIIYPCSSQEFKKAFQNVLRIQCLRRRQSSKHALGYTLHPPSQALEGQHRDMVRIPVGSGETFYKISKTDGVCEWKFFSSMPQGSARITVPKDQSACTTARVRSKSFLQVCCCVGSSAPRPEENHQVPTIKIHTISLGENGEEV
Experimental protocol: In vitro binding affinity measured on alpha-1 adrenergic receptor using [3H]prazosin as radioligand.
Type: protein assay
Measured quantity: log10 of IC50 (log10 of the value in µM)
Hey, these are logged values: log10 of IC50, µM being the unit before logging.

For the compound COc1ccc2c(c1)C(CCCN1CCN(c3ccccc3)CC1)=CCC2 , what log10 of IC50 is on record?
-0.80

For the compound COc1cccc2c1CCC=C2CCCN1CCN(c2ccccc2)CC1 , what log10 of IC50 is on record?
-1.31

For the compound COc1ccccc1N1CCN(CC/C=C2\CCCc3c(OC)cccc32)CC1 , what log10 of IC50 is on record?
-2.22

For the compound COc1cccc2c1CCCC2CCCN1CCN(c2cccc(C(F)(F)F)c2)CC1 (stereo unspecified) , what log10 of IC50 is on record?
0.86

For the compound COc1cccc2c1CCCC2CCCN1CCN(c2ccccc2)CC1 (stereo unspecified) , what log10 of IC50 is on record?
-1.10

For the compound COc1ccc2c(c1)C(SCCN1CCN(c3ccccc3OC)CC1)CCC2 (stereo unspecified) , what log10 of IC50 is on record?
-0.94

Data provenance: ChEMBL document CHEMBL1128270
